Biological target: human CB1 receptor (Homo sapiens, UniProt P21554)
Construct: expressed in transfected cells; host or cells: CHO (Chinese Hamster Ovary) cells
Sequence (P21554 whole entry): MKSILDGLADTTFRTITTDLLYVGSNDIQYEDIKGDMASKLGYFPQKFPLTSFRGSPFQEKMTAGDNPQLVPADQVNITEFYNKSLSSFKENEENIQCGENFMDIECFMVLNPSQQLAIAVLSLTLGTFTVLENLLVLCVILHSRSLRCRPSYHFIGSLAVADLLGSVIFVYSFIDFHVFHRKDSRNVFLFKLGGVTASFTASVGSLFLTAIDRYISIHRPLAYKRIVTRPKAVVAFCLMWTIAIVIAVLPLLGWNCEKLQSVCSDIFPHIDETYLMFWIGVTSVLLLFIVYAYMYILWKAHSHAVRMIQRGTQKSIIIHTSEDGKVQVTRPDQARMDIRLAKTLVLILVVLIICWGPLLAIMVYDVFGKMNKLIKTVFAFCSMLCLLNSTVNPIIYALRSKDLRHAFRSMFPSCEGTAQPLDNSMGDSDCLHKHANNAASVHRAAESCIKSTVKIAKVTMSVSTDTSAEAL
Assay: In-vitro determination of efficacy and potency at the human CB1 receptor expressed in CHO cells (luciferase reporter)
Format: cell-based
For each of the compounds below, state its pEC50.
Give bare numbers, as −log10 of the molar value.

Worked examples, 7 compounds total:
>>> value_measured("CCN1CCN(C(=O)c2cn(C(C)C3CCCCC3)c3ccccc23)CC1 (single isomer, unassigned; (+)) [(+)-5I]")
7.10
>>> value_measured("CCN1CCN(C(=O)c2cn(CC3CCCCC3)c3c(F)cccc23)CC1")
7.00
>>> value_measured("COc1cccc2c(C(=O)N3CCN(C)[C@@H](C)C3)cn(CC3CCCCC3)c12 [Example 15O]")
7.60
>>> value_measured("CN1CCN(C(=O)c2cn(CC3CCCCC3)c3cc(F)ccc23)CC1")
6.60
>>> value_measured("CCN1CCN(C(=O)c2cn(CC3CCCC3)c3c(OC)cccc23)CC1")
6.50
>>> value_measured("CCN1C(C)CN(C(=O)c2cn(CC3CCCCC3)c3c(OC)cccc23)CC1C (stereo not shown)")
8.00
>>> value_measured("CCN1CCN(C(=O)c2cn(CC3CC=CCC3)c3c(OC)cccc23)CC1 (stereo not shown)")
6.70

Attention now shifts to the item below.
QUERY: Identify measured pEC50 corresponding to COc1cccc2c(C(=O)N3CC(C)N(C)C(C)C3)cn(CC3CCCCC3)c12 (stereo not shown) [Example 15F]
RESULT: 7.50

* * *

Molecular target: human CB1 receptor (Homo sapiens, UniProt P21554)
Construct: expressed in transfected cells; host or cells: CHO (Chinese Hamster Ovary) cells
Test: In-vitro determination of efficacy and potency at the human CB1 receptor expressed in CHO cells (luciferase reporter)
Type: cell-based
Conditions: CHO cells expressing the human CB1 receptor and a luciferase reporter gene; 5 hours incubation; read-out: pEC50 (converted)
For each of the compounds below, state its EC50.
Give bare numbers, in nM.

Worked examples, 3 compounds total:
>>> value_measured("COc1cccc2c(C(=O)N3CCN4CCC[C@H]4C3)cn(CC3CCCCC3)c12 [Example 17C]")
25.1
>>> value_measured("COc1cccc2c(C(=O)N3CCN4CCCC[C@H]4C3)cn(CC3CCCC3)c12 [Example 17D]")
31.6
>>> value_measured("COc1cccc2c(C(=O)N3CCN(CCO)CC3)cn(CC3CCCCC3)c12 [Example 3C]")
251

Attention now shifts to the item below.
QUERY: Identify measured EC50 corresponding to COc1cccc2c(C(=O)N3CCN4CCCC[C@H]4C3)cn(CC3CCCCC3)c12 [Example 17A]
RESULT: 12.6
